# Tgt: Nape-pld (Mus musculus, UniProt Q8BH82)
# Sequence (Q8BH82 whole entry): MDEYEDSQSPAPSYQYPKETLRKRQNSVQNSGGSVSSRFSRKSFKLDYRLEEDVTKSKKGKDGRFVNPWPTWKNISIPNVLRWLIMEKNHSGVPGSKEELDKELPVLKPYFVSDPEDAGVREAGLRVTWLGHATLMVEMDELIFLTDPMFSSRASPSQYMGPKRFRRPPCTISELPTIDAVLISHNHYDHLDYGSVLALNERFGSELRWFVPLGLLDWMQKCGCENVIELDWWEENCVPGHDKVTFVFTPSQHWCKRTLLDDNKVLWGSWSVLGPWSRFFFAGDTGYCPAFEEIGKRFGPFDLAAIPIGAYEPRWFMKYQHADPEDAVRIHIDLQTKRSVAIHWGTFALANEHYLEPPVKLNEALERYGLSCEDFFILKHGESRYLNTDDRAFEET
# Measurement description: fluorogenic PED-A1 hydrolysis assay, activation
# Type: biochemical
# Measurement context: read-out: EC50 μM^b (95% CI)
Measure name: EC50 (µM)

1 = Cc1ccc2nc(NC(=O)C3CCN(S(=O)(=O)c4ccc(Cl)cc4)CC3)sc2c1
2 = Cc1ccc2nc(NC(=O)C3CCN(S(=O)(=O)c4ccc(F)cc4)CC3)sc2c1
Record comparison, field EC50: mark the lower of 1 and 2 . Please indicate the selected item by its label. 2
(2: 0.32 µM, 1: 0.74 µM)
